Molecular target: furin, P09958;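 further: purified furin at 1:10 enzyme:substrate in 50 mM HEPES pH 7.5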
Sequence (P09958 whole entry): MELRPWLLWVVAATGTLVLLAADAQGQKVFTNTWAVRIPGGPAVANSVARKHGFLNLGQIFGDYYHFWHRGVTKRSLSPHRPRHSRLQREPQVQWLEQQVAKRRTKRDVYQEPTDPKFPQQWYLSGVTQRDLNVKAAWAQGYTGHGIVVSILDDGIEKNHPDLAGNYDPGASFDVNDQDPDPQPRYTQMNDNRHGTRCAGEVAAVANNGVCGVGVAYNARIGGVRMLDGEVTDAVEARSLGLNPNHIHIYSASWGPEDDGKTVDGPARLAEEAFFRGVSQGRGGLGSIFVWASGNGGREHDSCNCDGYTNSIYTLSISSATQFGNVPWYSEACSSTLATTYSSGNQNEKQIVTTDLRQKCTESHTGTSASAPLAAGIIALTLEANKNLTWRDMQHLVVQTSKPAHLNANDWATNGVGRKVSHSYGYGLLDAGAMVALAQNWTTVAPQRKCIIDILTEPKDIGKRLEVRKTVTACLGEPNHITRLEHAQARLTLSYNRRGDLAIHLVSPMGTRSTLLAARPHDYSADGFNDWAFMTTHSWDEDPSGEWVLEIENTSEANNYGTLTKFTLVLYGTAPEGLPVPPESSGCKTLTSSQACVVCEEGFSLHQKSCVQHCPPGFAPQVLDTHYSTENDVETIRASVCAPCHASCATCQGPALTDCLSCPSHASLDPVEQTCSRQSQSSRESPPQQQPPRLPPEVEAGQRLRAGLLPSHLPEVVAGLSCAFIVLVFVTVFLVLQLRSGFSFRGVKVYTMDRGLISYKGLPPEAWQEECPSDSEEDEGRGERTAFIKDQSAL
Experiment: furin cleavage Z-score vs untreated control; higher = more cleavage, active = 3.5 or more, inactive = 1 or less, 8 variable residues between constant flanks
Conditions: 30 min
The list shows a part of the results. How many sequences the whole screen found active is unknown.
result.type: furin cleavage Z-score

[Q] furin cleavage Z-score lookup needed for CAECEVPCHRAGNASASA [HC2460] , thanks.
[A] 2.66

[Q] Could you tell me which furin cleavage Z-score is on file for CATTPCSGSVAGNASASA [HC1930] ?
[A] 1.22

[Q] Any idea what furin cleavage Z-score was measured for CAQRSRQVRCAGNASASA [FS-482] ?
[A] 1.12
